- Tested on: Escherichia coli TOP10
- methodDescription: shrunken log2 fold change of peptide-encoding DNA abundance (4.5 h post-induction vs induction); higher = less antimicrobial activity (less host growth inhibition)
- assayConditions: time post-induction: 4.5 h; library: site-saturation at positions 5, 18, 19, 20
metric: shrunken log2 fold change
A bare number is all that is needed in reply.

Log: Escherichia coli TOP10, sequence RRIRFRPPRLPRPRPRPWCDPRP , shrunken log2 fold change = -0.329

Log: Escherichia coli TOP10, sequence RRIRGRPPRLPRPRPRPNHAPRP , shrunken log2 fold change = -0.0738

Log: Escherichia coli TOP10, sequence RRIRRRPPRLPRPRPRPIKFPRP , shrunken log2 fold change = -0.202

Log: Escherichia coli TOP10, sequence RRIRNRPPRLPRPRPRPCQHPRP , shrunken log2 fold change = -0.0585

Log: Escherichia coli TOP10, sequence RRIRARPPRLPRPRPRPMRAPRP , shrunken log2 fold change = 1.25

* * *

- Test system: Escherichia coli TOP10
- methodDescription: shrunken log2 fold change of peptide-encoding DNA abundance (4.5 h post-induction vs induction); higher = less antimicrobial activity (less host growth inhibition)
- assayConditions: time post-induction: 4.5 h; library: site-saturation at positions 5, 18, 19, 20
metric: shrunken log2 fold change
A bare number is all that is needed in reply.

Examples with answers:
residues	shrunken log2 fold change
RRIRRRPPRLPRPRPRPATLPRP	0.332
RRIRARPPRLPRPRPRPAVYPRP	-0.079
RRIRPRPPRLPRPRPRPCGMPRP	0.0189
RRIRIRPPRLPRPRPRPCSFPRP	-0.45
RRIRHRPPRLPRPRPRPNSWPRP	0.254
RRIRNRPPRLPRPRPRPNTIPRP	-0.0529

The reported shrunken log2 fold change of the sequence RRIRPRPPRLPRPRPRPCSVPRP was 0.0152

The reported shrunken log2 fold change of the sequence RRIRLRPPRLPRPRPRPNMGPRP was -0.25

The reported shrunken log2 fold change of the sequence RRIRARPPRLPRPRPRPLSTPRP was 0.319

The reported shrunken log2 fold change of the sequence RRIRNRPPRLPRPRPRPPNLPRP was -0.166

The reported shrunken log2 fold change of the sequence RRIRPRPPRLPRPRPRPCNRPRP was -0.148

The reported shrunken log2 fold change of the sequence RRIRHRPPRLPRPRPRPYSNPRP was -0.392

* * *

Attribute: shrunken log2 fold change
- System: Escherichia coli TOP10
- methodDescription: shrunken log2 fold change of peptide-encoding DNA abundance (4.5 h post-induction vs induction); higher = less antimicrobial activity (less host growth inhibition)
- assayConditions: time post-induction: 4.5 h; library: site-saturation at positions 5, 18, 19, 20
A bare number is all that is needed in reply.

Examples with answers:
residues	shrunken log2 fold change
RRIRTRPPRLPRPRPRPDRDPRP	-0.126
RRIRQRPPRLPRPRPRPPFEPRP	0.333
RRIRYRPPRLPRPRPRPPLDPRP	0.443

Switching to the query record.
The reported shrunken log2 fold change of the sequence RRIRQRPPRLPRPRPRPSNEPRP was -0.5

* * *

- Tested on: Escherichia coli TOP10;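 further: peptides expressed intracellularly from a pBAD plasmid library in pooled LB shake-flask culture, induced with 0.3% L-arabinose, DNA abundance read by NGS, three biological replicates, DESeq2 with apeglm shrinkage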
- methodDescription: shrunken log2 fold change of peptide-encoding DNA abundance (4.5 h post-induction vs induction); higher = less antimicrobial activity (less host growth inhibition)
- assayConditions: time post-induction: 4.5 h; library: site-saturation at positions 5, 18, 19, 20
Class t: shrunken log2 fold change at least -0.1. Class f: shrunken log2 fold change below -0.1.

residues	assignedLabel
RRIRRRPPRLPRPRPRPPYWPRP	t
RRIRWRPPRLPRPRPRPSSPPRP	t
RRIRSRPPRLPRPRPRPGTSPRP	f
RRIRMRPPRLPRPRPRPDPTPRP	t
RRIRQRPPRLPRPRPRPCCMPRP	f
RRIRNRPPRLPRPRPRPRIEPRP	f
RRIRCRPPRLPRPRPRPHGVPRP	t
RRIRDRPPRLPRPRPRPAAQPRP	t

## Input Check if shrunken log2 fold change >= -0.1 (inclusive). Item: RRIRLRPPRLPRPRPRPKEVPRP
## Output f

## Input Check if shrunken log2 fold change >= -0.1 (inclusive). Item: RRIRFRPPRLPRPRPRPIYIPRP
## Output f

## Input Check if shrunken log2 fold change >= -0.1 (inclusive). Item: RRIRKRPPRLPRPRPRPAGQPRP
## Output t

## Input Check if shrunken log2 fold change >= -0.1 (inclusive). Item: RRIRKRPPRLPRPRPRPAPGPRP
## Output t

## Input Check if shrunken log2 fold change >= -0.1 (inclusive). Item: RRIRKRPPRLPRPRPRPPGWPRP
## Output t

## Input Check if shrunken log2 fold change >= -0.1 (inclusive). Item: RRIRLRPPRLPRPRPRPEGHPRP
## Output f

## Input Check if shrunken log2 fold change >= -0.1 (inclusive). Item: RRIRWRPPRLPRPRPRPMNLPRP
## Output t
